Just for reference, patent US20060030585A1 is where these values come from.

target: mu opioid receptor (Rattus norvegicus, UniProt P33535)
Sequence (P33535 whole entry): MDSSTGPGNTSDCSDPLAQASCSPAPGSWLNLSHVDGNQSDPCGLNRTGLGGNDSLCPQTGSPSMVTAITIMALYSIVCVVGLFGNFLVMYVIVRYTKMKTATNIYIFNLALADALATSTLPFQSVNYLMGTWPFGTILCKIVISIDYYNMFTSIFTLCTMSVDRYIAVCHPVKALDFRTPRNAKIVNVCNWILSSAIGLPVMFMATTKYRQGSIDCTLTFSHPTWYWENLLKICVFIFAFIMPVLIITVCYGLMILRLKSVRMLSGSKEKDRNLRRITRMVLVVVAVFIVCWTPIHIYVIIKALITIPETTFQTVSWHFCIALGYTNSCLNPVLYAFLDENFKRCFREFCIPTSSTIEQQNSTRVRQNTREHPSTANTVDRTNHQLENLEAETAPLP
experiment description: Rat brain mu opioid receptor binding assay ([3H]DAMGO)
test settings: Rat mu opioid receptor binding constant; rat forebrain membranes, ~0.8 nM [3H]DAMGO; read-out: MOR Ki
pKi: −log10 of the molar value.
measured endpoint: pKi

Some entries whose results are on file:
compound	measured endpoint	readout value
CC(=O)Nc1ccccc1-c1ccc2c(c1)Oc1ccccc1C2=C1CC2CCC(C1)N2C(=O)C(F)(F)F [Cpd 130]	pKi	< 5.00
O=C(N1C2CCC1CC(=C1c3ccccc3Oc3cc(-c4cccnc4)ccc31)C2)C(F)(F)F [Cpd 128]	pKi	< 5.00
CC(C)(C)OC(=O)N1C2CCC1CC(=C1c3ccccc3Oc3cc(C(=O)NCCO)ccc31)C2	pKi	< 5.00

Looking up O=c1[nH]c(-c2ccc3c(c2)Oc2ccccc2C3=C2CC3CCC(C2)N3)no1 [Cpd 91] , I found its pKi recorded as < 5.00

In plain terms, CC(=O)Nc1ccccc1-c1ccc2c(c1)Oc1ccccc1C2=C1CC2CCC(C1)N2C(=O)C(F)(F)F [Cpd 131] has a documented pKi of < 5.00

* * *

pKi values by entry
target: delta opioid receptor (Rattus norvegicus, UniProt P33533)
Sequence (P33533 whole entry): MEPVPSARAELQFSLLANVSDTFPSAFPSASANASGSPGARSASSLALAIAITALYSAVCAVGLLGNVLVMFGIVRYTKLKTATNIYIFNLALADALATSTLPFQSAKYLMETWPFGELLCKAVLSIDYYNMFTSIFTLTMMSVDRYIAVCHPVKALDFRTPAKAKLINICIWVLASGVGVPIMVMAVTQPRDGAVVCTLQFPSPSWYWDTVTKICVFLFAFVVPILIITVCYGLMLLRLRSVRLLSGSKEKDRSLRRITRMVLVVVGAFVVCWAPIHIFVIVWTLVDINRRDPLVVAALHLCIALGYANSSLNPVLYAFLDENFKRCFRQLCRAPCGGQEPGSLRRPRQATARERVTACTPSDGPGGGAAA
experiment description: Rat brain delta opioid receptor binding assay ([3H]DPDPE)
test settings: DOR Ki, Rat delta opioid receptor binding constant; rat forebrain membranes, ~4 nM [3H]DPDPE
Note on pKi: it is the negative log10 of concentration, concentration in mol/L.

Known results for compounds:
compound	readout value
Cc1nc(-c2ccc3c(c2)Oc2ccccc2C3=C2CC3CCC(C2)N3)no1 [Cpd 36]	6.43
c1ccc2c(c1)Sc1cc(-c3nnn[nH]3)ccc1C2=C1C[C@H]2CC[C@@H](C1)N2 (single isomer, unassigned) [Cpd 102]	7.27

Here's the next entry for you.
Fill in: delta opioid receptor (Rattus norvegicus, UniProt P33533) pKi for Fc1cccc(-c2ccc3c(c2)Oc2ccccc2C3=C2CC3CCC(C2)N3)c1 [Cpd 51] = 5.61

* * *

target: delta opioid receptor (Rattus norvegicus, UniProt P33533)
experiment description: Rat brain delta opioid receptor binding assay ([3H]DPDPE)
test settings: Rat delta opioid receptor binding constant; rat forebrain membranes, ~4 nM [3H]DPDPE; read-out: DOR Ki
Description: Rat Brain Delta Opioid Receptor Binding Assay Procedure: Male, Sprague Dawley rats (150-250 g, VAF, Charles River, Kingston, N.Y.) were killed by CO2, and their brains removed and placed immediately in ice cold Tris HCl buffer (50 mM, pH 7.4). […] To each sample area 2×50 μL of Betaplate Scint scintillation fluid (LKB) was added and the radioactivity quantified on a LKB (Wallac) 1205 BetaPlate liquid scintillation counter. […]
# Ki per record follows
# number only, unit nM dropped from output

Check out these entries, answers already filled in.
molecule	readout value
O=c1[nH]c(-c2ccc3c(c2)Oc2ccccc2C3=C2CC3CCC(C2)N3)ns1 [Cpd 95]	159
CC(=O)Nc1ccccc1-c1ccc2c(c1)Sc1ccccc1C2=C1CC2CCC(C1)N2Cc1ncc[nH]1	142

Proceeding to the next molecule to report its Ki.
// Ki value for COc1cccc2c1Oc1cc(-c3ccoc3)ccc1C2=C1CC2CCC(C1)N2 : 88

* * *

target: mu opioid receptor (Rattus norvegicus, UniProt P33535)
experiment description: Rat brain mu opioid receptor binding assay ([3H]DAMGO)
test settings: MOR Ki, Rat mu opioid receptor binding constant; rat forebrain membranes, ~0.8 nM [3H]DAMGO
measured endpoint: log10 of Ki (log10 of the value in µM)
// stored as log10 of Ki expressed in µM

Worked cases, log10 of Ki given:
structure string	log10 of Ki
COC(=O)c1ccc2c(c1)Oc1cc(C(=O)OC)ccc1C2=C1CC2CCC(C1)N2	0.85
O=C(Nc1ccccc1)c1ccc2c(c1)Oc1ccccc1C2=C1CC2CCC(C1)N2	0.08
CCc1cnc(-c2ccc3c(c2)Oc2ccccc2C3=C2CC3CCC(C2)N3)[nH]1	-0.60

For reference, reported log10 of Ki for O=c1[nH]c(-c2ccc3c(c2)Oc2ccccc2C3=C2CC3CCC(C2)N3)ns1 stands at 0.03

Value of log10 of Ki reported for the compound O=C(c1ccc2c(c1)Oc1ccccc1C2=C1CC2CCC(C1)N2)N1CCCC1 is 0.15

Entry c1cncc(-c2ccc3c(c2)Sc2ccccc2C3=C2CC3CCC(C2)N3)c1 ; log10 of Ki = 0.00

The compound listed as c1ccc2c(c1)Oc1cc(C3=NCCCN3)ccc1C2=C1CC2CCC(C1)N2 shows log10 of Ki equal to -0.06

For record c1ccc2c(c1)Oc1cc(-c3nnn[nH]3)ccc1C2=C1CC2CCC(C1)N2 the listed log10 of Ki is -0.20

* * *

target: delta opioid receptor (Rattus norvegicus, UniProt P33533)
experiment description: Rat brain delta opioid receptor binding assay ([3H]DPDPE)
test settings: Rat delta opioid receptor binding constant; rat forebrain membranes, ~4 nM [3H]DPDPE; read-out: DOR Ki
measured endpoint: Ki

compound	readout value
O=C(N1C2CCC1CC(=C1c3ccccc3Oc3cc(-c4cccnc4)ccc31)C2)C(F)(F)F [Cpd 128]	> 10 µM
O=C(N1C2CCC1CC(=C1c3ccccc3Oc3cc(-c4cccnc4)ccc31)C2)C(F)(F)F [Cpd 129]	> 10 µM

# context switch: different compound, same Ki
GET /values?item= CC(=O)Nc1ccccc1-c1ccc2c(c1)Oc1ccccc1C2=C1CC2CCC(C1)N2C(=O)C(F)(F)F [Cpd 130] &system= delta opioid receptor (Rattus norvegicus, UniProt P33533) returns Ki: > 10 µM

* * *

Collected EC50 values appear next to each entry.
target: delta opioid receptor (NG108-15 cell membranes) (Mus musculus)
Construct: NG108-15 cell membranes were purchased from Applied Cell Sciences (Rockville, Md.); host or cells: NG108-15 cell membranes (purchased)
Sequence (P32300 whole entry): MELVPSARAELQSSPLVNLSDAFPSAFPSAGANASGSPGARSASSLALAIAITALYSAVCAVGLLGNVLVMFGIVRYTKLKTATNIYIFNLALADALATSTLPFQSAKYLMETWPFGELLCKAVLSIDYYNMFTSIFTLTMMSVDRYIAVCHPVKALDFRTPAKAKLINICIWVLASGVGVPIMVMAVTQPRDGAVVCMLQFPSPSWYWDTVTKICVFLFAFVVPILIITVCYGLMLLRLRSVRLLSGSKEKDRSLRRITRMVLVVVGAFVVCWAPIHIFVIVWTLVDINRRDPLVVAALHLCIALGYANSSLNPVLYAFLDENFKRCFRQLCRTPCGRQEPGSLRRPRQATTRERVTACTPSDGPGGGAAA
experiment description: [35S]GTPγS binding assay in NG108-15 cell membranes (delta opioid)
Type: biochemical
test settings: DOR GTPγS EC50, NG108-15 cell membranes, agonist-stimulated [35S]GTPγS binding
Answer shape: numeric part, then the unit.

compound	readout value
O=C(NC(CO)Cc1ccccc1)c1ccc2c(c1)Oc1ccccc1C2=C1CC2CCC(C1)N2 (single isomer, unassigned)	79 nM

The compound O=c1[nH]c(-c2ccc3c(c2)Oc2ccccc2C3=C2CC3CCC(C2)N3)no1 on delta opioid receptor (NG108-15 cell membranes) (Mus musculus): EC50 was 128 nM

Result for S=c1[nH]c(-c2ccc3c(c2)Oc2ccccc2C3=C2CC3CCC(C2)N3)no1 , tested on delta opioid receptor (NG108-15 cell membranes) (Mus musculus), EC50: 104 nM

* * *

target: delta opioid receptor (Rattus norvegicus, UniProt P33533)
experiment description: Rat brain delta opioid receptor binding assay ([3H]DPDPE)
test settings: DOR Ki, Rat delta opioid receptor binding constant; rat forebrain membranes, ~4 nM [3H]DPDPE
measured endpoint: Ki (nM)
Kindly answer with a numeric value in nM, unit omitted.

Some molecules with known Ki results, for comparison:
molecule	readout value
c1ccc2c(c1)Oc1cc(C3=NCCN3)ccc1C2=C1CC2CCC(C1)N2 [Cpd 33]	224
CN(CCO)C(=O)c1ccc2c(c1)Oc1ccccc1C2=C1CC2CCC(C1)N2 [Cpd 61]	6.25
Cn1ccc(-c2ccc3c(c2)Oc2ccccc2C3=C2CC3CCC(C2)N3)n1 [Cpd 111]	220
O=c1[nH]c(-c2ccc3c(c2)Oc2ccccc2C3=C2CC3CCC(C2)N3)ns1 [Cpd 8]	10.8
OCc1cccc(-c2ccc3c(c2)Oc2ccccc2C3=C2CC3CCC(C2)N3)c1 [Cpd 23]	75
c1ccc2c(c1)Oc1cc(-c3ccsc3)ccc1C2=C1CC2CCC(C1)N2 [Cpd 55]	4720
c1cncc(-c2ccc3c(c2)Sc2ccccc2C3=C2CC3CCC(C2)N3Cc2ncc[nH]2)c1 [Cpd 115]	91
CS(=O)(=O)c1ccc(-c2ccc3c(c2)Oc2ccccc2C3=C2CC3CCC(C2)N3)cc1 [Cpd 53]	3140

Now for another entry.
Item O=c1[nH]c(-c2ccc3c(c2)Oc2c(O)cccc2C3=C2CC3CCC(C2)N3)no1 [Cpd 134] ; assay system delta opioid receptor (Rattus norvegicus, UniProt P33533); Ki reported as 0.12

* * *

Quick list: Ki per entry.
target: delta opioid receptor (Rattus norvegicus)
experiment description: Rat brain delta opioid receptor binding assay ([3H]DPDPE)
test settings: DOR Ki, Rat delta opioid receptor binding constant; rat forebrain membranes, ~4 nM [3H]DPDPE

// below: answered molecules
structure string	measured endpoint	readout value
c1ccc(CN2C3CCC2CC(=C2c4ccccc4Sc4cc(-c5cccnc5)ccc42)C3)nc1	Ki	95 nM
Cc1nnc(-c2ccc3c(c2)Oc2ccccc2C3=C2CC3CCC(C2)N3)[nH]1	Ki	266 nM
O=C(c1ccc2c(c1)Oc1ccccc1C2=C1CC2CCC(C1)N2)N1CCCC1	Ki	7.4 nM
CC(C)NC(=N)c1ccc2c(c1)Oc1ccccc1C2=C1CC2CCC(C1)N2	Ki	441 nM

Notebook: CN(C)CCN(C)C(=O)c1ccc2c(c1)Oc1ccccc1C2=C1CC2CCC(C1)N2 , Ki read as 4930 nM

Consider O=C(NCC(F)(F)F)c1ccc2c(c1)Oc1ccccc1C2=C1CC2CCC(C1)N2 . Its measured Ki is 52 nM

# Ki of O=C(NC1CCCC1)c1ccc2c(c1)Oc1ccccc1C2=C1CC2CCC(C1)N2 = 673 nM

Lab note: measured Ki of NC(=NO)c1ccc2c(c1)Oc1ccccc1C2=C1CC2CCC(C1)N2 was 76.8 nM

Ki for CC(C)CN(CC(C)C)C(=N)c1ccc2c(c1)Oc1ccccc1C2=C1CC2CCC(C1)N2 is 107 nM

Ki recorded for this molecule, COc1cccc2c1Oc1cc(Br)ccc1C2=C1CC2CCC(C1)N2 , is 192 nM

For record CN(Cc1ccccc1)C(=O)c1ccc2c(c1)Oc1ccccc1C2=C1CC2CCC(C1)N2 the listed Ki is 2730 nM

Per the records, this molecule ( CC(=O)Nc1ccccc1-c1ccc2c(c1)Oc1ccccc1C2=C1CC2CCC(C1)N2 ) has Ki equal to 4.36 nM

Query COC(=O)c1ccc2c(c1)Oc1cc(C(=O)OC)ccc1C2=C1CC2CCC(C1)N2 yields Ki of 1150 nM

Quick note, Ki for CC(C)C[C@H](CO)NC(=O)c1ccc2c(c1)Oc1ccccc1C2=C1CC2CCC(C1)N2 landed at 360 nM

molecule COc1ccc(-c2ccc3c(c2)Oc2ccccc2C3=C2CC3CCC(C2)N3)cn1 , Ki observed: 160 nM
